Measured pIC50 values are reported for all entries that follow.
Tested on: Influenza A virus
assay-explanation: Antiviral activity against influenza A virus (A/Puerto Rico/8/34(H1N1)) infected in MDCK cells assessed as inhibition of virus-induced cytopathic effect after 48 hrs by crystal violet staining assay
Type: functional, organism-based
condition-parameters: A/Puerto Rico/8/1934(H1N1)
pIC50: −log10 of the molar value.

- compound-structure: "COc1c(C)c2c(c(OC)c1OC)C(=O)[C@@]1(OC2)OCc2c(C)c(OC)c(OC)c(OC)c21"
  pIC50: 3.83
- compound-structure: "NC(=O)c1ncn([C@@H]2O[C@H](CO)[C@@H](O)[C@H]2O)n1"
  pIC50: 4.00
